test system: LOC_OS04G35114-cb001; assay: thermal shift delta Tm vs DMSO control; higher = stronger stabilization (binding); details: 12.5 µM; protein concentration 2 µM;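 also: purified Escherichia coli-expressed rice kinase domain construct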
measurement-type: thermal shift delta Tm (°C)

{"compound": "CNC(=O)c1cc(Oc2ccc(NC(=O)Nc3cc(C(C)(C)C)nn3-c3ccc4ncccc4c3)c(F)c2)ccn1 [Rebastinib (DCC-2036)]", "target-or-test-system": "LOC_OS04G35114-cb001", "recorded-number": 0.84}
{"compound": "C[C@H](Nc1ncnc2[nH]cnc12)c1cc2ccc(F)cc2nc1-c1ccccn1", "target-or-test-system": "LOC_OS04G35114-cb001", "recorded-number": 0.44}
{"compound": "C=CC(=O)Nc1cccc(Oc2nc(Nc3ccc(N4CCN(C)CC4)cc3OC)ncc2Cl)c1", "target-or-test-system": "LOC_OS04G35114-cb001", "recorded-number": 0.9}
{"compound": "COc1cc2ncnc(Oc3cccc(NC(=O)Nc4cc(C(C)(C)C(F)(F)F)on4)c3)c2cc1OC", "target-or-test-system": "LOC_OS04G35114-cb001", "recorded-number": 0.57}
